Assay: probe aLefty1 binding on compound microarray – biochemical, small-molecule microarray, 635/667 nm fluorescence, primary screen (AID 1153);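 note: score merges spot fluorescence with signal-to-noise ratio from the scanned slide images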
Conditions: higher = more signal
Each entry falls into one class according to its composite z-score; the ranges are lo = under 0.01, mid = from 0.01 up to 0.2, hi = 0.2 and over

CCCCCN1CC=CC23O[C@@H]4C=CCCOC(=O)C4[C@H]2C(=O)N(CCCO)[C@@H]3C1=O (stereo not given in full): lo
CC(c1ccccc1)C(O)C1C=CC2C(=O)N(c3ccccc3)C(=O)C2N1Nc1ccccc1F (stereo not given): mid
O=S(=O)(NCCCO)c1ccc(Br)cc1: mid
Cc1ccc(S[C@]2(C(=O)NCCN3CCOCC3)CC(=O)N(C3CCCCC3)[C@@H]2c2ccc(CO)cc2)cc1: mid
COC(=O)[C@@]1(Cc2ccc(F)cc2)[C@H]2c3cc(C(=O)N4CCCC4)n(CCc4ccc(OC)c(Br)c4)c3C[C@H]2CN1C(=O)c1ccccc1: hi
C=CCOC(=O)[C@@H]1[C@H]2C(=O)O[C@H](c3ccccc3)[C@H](c3ccccc3)N2[C@H](c2ccc(OCCOC(=O)[C@H]3C[C@H]4C(=O)N[C@@H](CCCC[N+](C)(C)C)C(=O)N4[C@H]3c3cccc(OCCO)c3)cc2)[C@@]12C(=O)Nc1ccc(I)cc12: mid
Cc1c(NC(=O)/C(C#N)=C/C=C/c2ccccc2)c(=O)n(-c2ccccc2)n1C: lo
CC(C)CNC(=O)[C@@]1(C)c2ccccc2C(=O)N(C(C)C)[C@H]1c1ccc(CO)cc1: mid

Q) Band for O=C1OCC=C[C@H]2OC34C=CCN(Cc5ccccc5)C(=O)[C@H]3N(CCCO)C(=O)[C@@H]4[C@@H]12 (stereo not given in full) ?
A) hi

Q) What about this molecule? `C[C@]1(C(=O)NCC(F)(F)F)c2ccccc2C(=O)N(Cc2cc(F)cc(C(F)(F)F)c2)[C@H]1c1ccc(CO)cc1`
A) lo

Q) What about this molecule? CN1C(=O)C2C=CC(C(O)C=Cc3ccc([N+](=O)[O-])cc3)N(N3CCCCC3)C2C1=O (stereo not given)
A) hi

Q) What about this molecule? `O=C1O[C@H](c2ccccc2)[C@H](c2ccccc2)N2[C@H]1[C@@H](C(=O)NC[C@H](O)c1ccccc1)[C@]1(C(=O)Nc3ccc(C#CC4(O)CCCCCC4)cc31)[C@H]2c1ccccc1OCCO`
A) hi

Q) What about this molecule? `O=C(NCCN1CCOCC1)[C@@H]1c2ccccc2C(=O)N(Cc2cc(F)cc(C(F)(F)F)c2)[C@H]1c1ccc(CO)cc1`
A) lo

Q) What about this molecule? `CN(C)CCCC[C@@H]1NC(=O)[C@@H]2C[C@H](C(=O)NCc3ccc(F)cc3)[C@H](c3cccc(OCCO)c3)N2C1=O`
A) mid

---

Target: Fibroblast growth factor 2 (Homo sapiens)
Assay: basic fibroblast growth factor binding to printed compounds – biochemical, small-molecule microarray, 635/667 nm fluorescence, primary screen (AID 1133)
Conditions: FGF2, fluorescence 635/667, higher = more signal
Assign class by composite z-score: not lower than 0.4 means fulfilled; lower than 0.4 means not fulfilled.

A selection of reference data follows.
COCCCNC(=O)[C@]1(Cc2ccccc2N=[N+]=[N-])N=C(c2ccc(OCCCO)cc2)O[C@@H]1c1ccccc1CN=[N+]=[N-]: fulfilled
OCCCc1cc[n+](Cc2cccc(OC(F)(F)F)c2)cc1: fulfilled
C[C@H]1C2[C@H](Cc3ccccc3)NC(=O)[C@]23C(=O)N[C@H](Cc2ccccc2)C(=O)N[C@H](Cc2ccccc2)C(=O)NC/C=C/CCC/C=C/C3[C@@H]2O[C@]12C (stereo not given in full): fulfilled
CN(C)CCCC[C@@H]1NC(=O)[C@@H]2C[C@H](C(=O)NCCCCCCN)[C@H](c3ccc(O)cc3)N2C1=O: fulfilled

Turning to the following compound.
Q) Item `COc1ccc([Si](C)(C)[C@@H]2[C@@H](CCO)O[C@]3(C(=O)N(Cc4cccc(N5CCCCC5=O)c4)c4ccccc43)[C@H]2C)cc1` with composite z-score of 0.4 or above?
A) fulfilled

---

Molecular target: Luciferin 4-monooxygenase (Photinus pyralis)
Assay: inhibition of purified Photinus pyralis luciferase – biochemical, luminescence, purified enzyme, 2006 set, primary screen (AID 1141);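 note: cell-free assay with purified firefly luciferase at 100 ng per well in PBS; test concentration not given here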
Settings: purified firefly luciferase, SteadyGlo luminescence, 30 min, called active from +8 up or from −8 down
Activity calls are given as the source filed them.
Permitted responses: Yes = active, No = inactive

[N-]=[N+]=Nc1ccccc1[C@@H]1OC(c2ccc(OCCCO)cc2)=N[C@]1(CCS(=O)(=O)c1ccccc1)C(=O)N1CCCCC1: Yes
CCOC(=O)C1=CC[C@@H](c2cccc(Cl)c2)N(S(=O)(=O)c2ccc(C)cc2)[C@H]1c1ccc(C#N)cc1: No
Cc1cc(C)c(C(O)C2C=CC3C(=O)NC(=O)C3N2Nc2ccccn2)c(C)c1 (stereo not drawn): No
COc1ccc([Si](C)(C)[C@H]2[C@H](CC(=O)N3CCC[C@H]3CO)O[C@@]3(C(=O)N(c4ccccc4)c4ccccc43)[C@@H]2C)cc1: No
O=C1OCCC/C=C\[C@H]2OC34C=CCN(CCN5CCOCC5)C(=O)[C@H]3N(CCO)C(=O)[C@@H]4C12 (stereo partly drawn): No

Q) Look up the recorded call for `COC(=O)[C@@]1(Cc2ccc(OC)cc2)[C@H]2c3cc(C(=O)N4CCCC4)n(CCN4CCOCC4)c3C[C@H]2CN1C(=O)c1ccccc1` in this test.
A) No

Q) What about this compound? O=C1C2C=CC(C(O)CCc3ccccc3)N(Nc3ccccc3)C2C(=O)N1c1ccccc1 (stereo not drawn)
A) No

Q) What about this compound? `COCCOC(=O)N1C(=O)[C@@]2(c3cc(C#Cc4ccc(OC)cc4)ccc31)[C@H](c1ccc(OCCO)cc1)N1[C@H](c3ccccc3)[C@H](c3ccccc3)OC(=O)[C@H]1[C@@H]2C(=O)N1CCc2cc(OC)c(OC)cc2C1`
A) No

Q) What about this compound? `C=CCNC(=O)[C@H]1[C@@H]2C(=O)O[C@@H](c3ccccc3)[C@@H](c3ccccc3)N2[C@@H](c2ccc(OCCO)cc2)[C@]12C(=O)N(C(=O)OCCOC)c1ccc(C#CC3(O)CCCCCC3)cc12`
A) No

Q) What about this compound? `C=CCOC(=O)[C@@H]1[C@H]2C(=O)O[C@H](c3ccccc3)[C@H](c3ccccc3)N2[C@H](c2ccc(OCCOC(=O)[C@H]3C[C@H]4C(=O)N[C@@H](CCCC[N+](C)(C)C)C(=O)N4[C@H]3c3cccc(OCCO)c3)cc2)[C@@]12C(=O)Nc1ccc(I)cc12`
A) No

Q) What about this compound? `[N-]=[N+]=NCc1ccccc1C[C@]1(C(=O)N2CCOCC2)N=C(c2ccc(OCCCO)cc2)O[C@H]1c1ccccc1`
A) No

Q) What about this compound? `COC(=O)[C@@]1(Cc2ccc(OC)cc2)[C@H]2c3cc(C(=O)N4CCCC4)n(C[C@H](O)CO)c3C[C@H]2CN1C(=O)c1ccccc1`
A) No

Q) What about this compound? `COc1ccccc1CN1C(=O)c2ccccc2[C@](Cc2ccccc2I)(C(=O)NC2CC2)[C@@H]1c1ccc(CO)cc1`
A) No

---

Molecular target: Follistatin (Homo sapiens)
Assay: FST protein binding to printed compounds – biochemical, small-molecule microarray, 635/667 nm fluorescence, primary screen (AID 1132)
Settings: 635 nm fluorescence, higher = more signal
Assign class by composite z-score: not lower than 0.5 means y; lower than 0.5 means n.

CC(c1ccccc1)C(O)C1C=CC2C(=O)N(c3ccccc3)C(=O)C2N1Nc1ccccc1F (centres undefined): n
Cc1ccc(S[C@]2(C(=O)NCCCN(C)C)CC(=O)N(C(C)C)[C@@H]2c2ccc(CO)cc2I)cc1: n
C=CCOC(=O)[C@H]1[C@@H]2C(=O)O[C@@H](c3ccccc3)[C@@H](c3ccccc3)N2[C@@H](c2ccc(OCCOC(=O)[C@@H]3C[C@@H]4C(=O)NCC(=O)N4[C@@H]3c3ccc(O)cc3)cc2)[C@]12C(=O)Nc1ccc(I)cc12: y
O=C1OCC=C[C@H]2OC34C=CCN(Cc5ccccc5)C(=O)[C@H]3N(CCCO)C(=O)[C@@H]4[C@@H]12 (some centres undefined): n

Q) Item `CC(C)N1C(=O)c2ccccc2[C@](C)(C(=O)NCCCN(C)C)[C@@H]1c1ccc(CO)cc1` with composite z-score of 0.5 or above?
A) n

Q) What about this compound? `COCCn1c(C(=O)N2CCCC2)cc2c1C[C@H]1CN(C(=O)c3ccccc3)[C@@](Cc3ccc(OC)cc3)(C(=O)OC)[C@@H]21`
A) n

Q) What about this compound? `C=CCOC(=O)[C@@H]1[C@H]2C(=O)O[C@H](c3ccccc3)[C@H](c3ccccc3)N2[C@H](c2ccc(OCCOC(=O)[C@H]3C[C@H]4C(=O)N[C@@H](CCCC[N+](C)(C)C)C(=O)N4[C@H]3c3cccc(OCCO)c3)cc2)[C@@]12C(=O)Nc1ccc(I)cc12`
A) y

Q) What about this compound? `C#C[C@H](O[Si](C#CCCCCCC)(C(C)C)C(C)C)c1ccccc1`
A) n

Q) What about this compound? O=C1OCCC/C=C\[C@H]2OC34C=CCN(Cn5nnc6ccccc65)C(=O)[C@H]3N(CCCO)C(=O)[C@@H]4C12 (some centres undefined)
A) n

Q) What about this compound? `COc1ccc(C#Cc2ccc3c(c2)[C@]2(C(=O)N3)[C@H](C(=O)N3CCc4cc(OC)c(OC)cc4C3)[C@H]3C(=O)O[C@H](c4ccccc4)[C@H](c4ccccc4)N3[C@@H]2c2ccc(OCCO)cc2)cc1`
A) y

Q) What about this compound? `C=C(/C(=C/C[C@@H](OC(C)=O)c1ccc(CO)o1)c1cnc2ccccc2c1)C(C)C`
A) y

Q) What about this compound? `CCOC(=O)C[C@H]1[C@H](OC(=O)c2cc3ccccc3oc2=O)[C@@H](NC(=O)c2ccc3ccccc3c2)c2cc(OCCCO)ccc2N1C(=O)c1ccccc1`
A) y

Q) What about this compound? `COc1ccccc1CN1C(=O)c2ccccc2[C@](Cc2ccccc2I)(C(=O)NCc2ccccc2)[C@@H]1c1ccc(CO)cc1`
A) n

Q) What about this compound? `CCOC(=O)C1=CC[C@@H](c2ccccc2)N(S(=O)(=O)c2ccc(C)cc2)[C@H]1c1ccc(C#N)cc1`
A) n
